Biological target: T1, IL-11 (Cat. 12225-HNCE, Sino Biological Inc.) (UniProt P20809 22-199, limits assumed)
T1 sequence (looked up): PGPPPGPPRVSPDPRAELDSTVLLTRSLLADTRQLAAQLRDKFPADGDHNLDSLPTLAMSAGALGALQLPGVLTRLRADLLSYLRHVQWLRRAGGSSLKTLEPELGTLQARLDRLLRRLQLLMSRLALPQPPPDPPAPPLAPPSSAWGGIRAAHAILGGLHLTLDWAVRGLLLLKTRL
Test: competition ELISA, IL-11/IL-11Rα/GP130 complex
MEASURED PARAMETER: IC50 (µg/mL)

# BINDER, MEASURED PARAMETER, UNIT SPEC, EXPERIMENTAL RESULT
data = [
    ("hz8C8-VHm1-m9 + hz8C8-VLm7-m2 (antibody, human IgG1, kappa, V domains shown, human IgG1 constant regions) VH: EVQLVESGGGLVQPGGSLRLSCAASGFTFSSFGMHWVRQAPGKGLEWMGYITPGSNTIYYADTVKGRFTISRDNAKNSLYLQMNSLRAEDTAVYYCAREYYSYDEGFAYWGQGTLVTVSS VL: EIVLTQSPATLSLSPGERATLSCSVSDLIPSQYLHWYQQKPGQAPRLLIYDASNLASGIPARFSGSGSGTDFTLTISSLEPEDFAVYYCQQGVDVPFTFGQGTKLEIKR", "IC50", "µg/mL", 0.77),
    ("hz8C8-VHm1-m12 + hz8C8-VLm7-m2 (antibody, human IgG1, kappa, V domains shown, human IgG1 constant regions) VH: EVQLVESGGGLVQPGGSLRLSCAASGFTFSSFGMHWVRQAPGKGLEWVAYITPGSNTIYYADTVKGRFTISRDNAKNSLYLQMNSLRAEDTAVYYCAREYYSYDEGGAYWGQGTLVTVSS VL: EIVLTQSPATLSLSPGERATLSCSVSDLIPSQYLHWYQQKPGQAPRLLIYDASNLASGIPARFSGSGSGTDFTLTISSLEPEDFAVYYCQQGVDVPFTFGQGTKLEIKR", "IC50", "µg/mL", 1.54),
    ("hz8C8 (antibody, human IgG1, kappa, V domains shown, humanized, human constant regions; also called hz8C8-VH + hz8C8-VL; parent antibody hz8C8) VH: EVQLVESGGGLVQPGGSLRLSCAASGFTFSSFGMHWVRQAPGKGLEWVAYITSGSNTIYYADTVKGRFTISRDNAKNSLYLQMNSLRAEDTAVYYCAREYYSYDEGFAYWGQGTLVTVSS VL: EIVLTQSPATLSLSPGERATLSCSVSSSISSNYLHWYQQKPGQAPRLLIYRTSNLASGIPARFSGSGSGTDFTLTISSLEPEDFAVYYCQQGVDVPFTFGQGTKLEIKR", "IC50", "µg/mL", 2.56),
    ("hz8C8-VHm1 + hz8C8-VLm4 (antibody, human IgG1, kappa, V domains shown, human IgG1 constant regions) VH: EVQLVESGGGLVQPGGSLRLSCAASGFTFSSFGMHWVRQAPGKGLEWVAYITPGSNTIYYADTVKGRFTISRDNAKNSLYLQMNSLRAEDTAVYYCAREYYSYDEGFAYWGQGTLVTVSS VL: EIVLTQSPATLSLSPGERATLSCSVSDLISSNYLHWYQQKPGQAPRLLIYRTSNLASGIPARFSGSGSGTDFTLTISSLEPEDFAVYYCQQGVDVPFTFGQGTKLEIKR", "IC50", "µg/mL", 0.846),
    ("hz8C8-VHm1 + hz8C8-VLm7-m4 (antibody, human IgG1, kappa, V domains shown, human IgG1 constant regions) VH: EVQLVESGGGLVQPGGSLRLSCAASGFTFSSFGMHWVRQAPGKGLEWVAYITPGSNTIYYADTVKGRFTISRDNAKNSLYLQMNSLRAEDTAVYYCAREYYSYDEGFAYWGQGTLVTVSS VL: EIVLTQSPATLSLSPGERATLSCSVSDLIPSQYLHWYQQKPGQAPRLLIYRTSNRASGIPARFSGSGSGTDFTLTISSLEPEDFAVYYCQQGVDVPFTFGQGTKLEIKR", "IC50", "µg/mL", 0.69),
]
